Test system: A-431
ASSAY OVERVIEW: cells
REPORTED CONDITIONS: Homo sapiens, A-431, 48 h
Description: Antiproliferation activity against human A431 cells assessed as reduction in cell viability incubated incubated for 48 hrs by MTT assay
pIC50: −log10 of the molar value.
METRIC NAME: pIC50

Solved entries (count: 4):
C=C(F)C(=O)Nc1cccc(Oc2nc(Nc3ccc(N4CCN(C)CC4)cc3OC)ncc2Cl)c1 4.96
C=C(Cl)C(=O)Nc1cccc(Nc2nc(Nc3ccc(N4CCN(C(C)=O)CC4)cc3Cl)ncc2Cl)c1 5.74
C=CC(=O)Nc1cccc(Nc2nc(Nc3ccc(N4CCN(C(C)=O)CC4)cc3OC)ncc2C(F)(F)F)c1 5.22
C=C(Cl)C(=O)Nc1cccc(Oc2nc(Nc3ccc(N4CCN(C(C)=O)CC4)c(C(F)(F)F)c3)ncc2Cl)c1 5.83

[I] C=C(Cl)C(=O)Nc1cc(Nc2ncc(Cl)c(-c3cn(C)c4ccccc34)n2)ccc1N(C)C
[II] C=C(Cl)C(=O)Nc1cccc(Nc2nc(Nc3ccc(N4CCN(C(C)=O)CC4)cc3OC)ncc2Cl)c1
**Q:** // which entry has the larger pIC50 value, I or II ? Output the label that corresponds to your choice.
**A:** I

====

As an illustration, consider measured pIC50 for molecules on Epidermal growth factor receptor (Homo sapiens).
Field pIC50 (float): negative decimal logarithm of the concentration in molar.

**Q:** Look up pIC50 for this molecule: `C=C(Cl)C(=O)Nc1cccc(Nc2nc(Nc3ccc(N4CCN(C(C)=O)CC4)cc3)ncc2Cl)c1`
**A:** 7.15

**Q:** Using the record for `C=C(Cl)C(=O)Nc1cccc(Nc2nc(Nc3ccc(N4CCN(C(C)=O)CC4)cc3Cl)ncc2Cl)c1` , report its pIC50.
**A:** 6.52

**Q:** What does the data say about its pIC50? Entry: `C=C(Cl)C(=O)Nc1cccc(Nc2nc(Nc3ccc(N4CCN(C(C)=O)CC4)nc3)ncc2Cl)c1`
**A:** 6.89

**Q:** Fill blank: measured pIC50 of the molecule `C=C(Cl)C(=O)Nc1cccc(Nc2nc(Nc3ccc(N4CCN(C(C)=O)CC4)cc3OC)ncc2C(F)(F)F)c1` is ____.
**A:** 6.59

**Q:** Look at this molecule and give its reported pIC50. `C=C(Cl)C(=O)Nc1cccc(Oc2nc(Nc3ccc(N4CCN(C(C)=O)CC4)cc3)ncc2Cl)c1`
**A:** 6.89

**Q:** Entry `C=C(Cl)C(=O)Nc1cccc(Nc2nc(Nc3ccc(N4CCN(C(C)=O)CC4)c(C)c3)ncc2Cl)c1` has what pIC50?
**A:** 7.29

**Q:** Any idea what pIC50 was measured for `C=C(Cl)C(=O)Nc1cccc(Nc2nc(Nc3ccc(N4CCN(C(C)=O)CC4)c(Cl)c3)ncc2Cl)c1` ?
**A:** 7.28

====

Tested on: A-431
ASSAY OVERVIEW: cells
REPORTED CONDITIONS: Homo sapiens, A-431, 48 h
pIC50: −log10 of the molar value.
METRIC NAME: pIC50

# count of solved cases: 5
C=C(Cl)C(=O)Nc1cccc(Oc2nc(Nc3ccc(N4CCN(C(C)=O)CC4)cc3)ncc2Cl)c1 6.21
C=C(F)C(=O)Nc1cccc(Nc2nc(Nc3ccc(N4CCN(C(C)=O)CC4)cc3)ncc2Cl)c1 5.19
C=C(F)C(=O)Nc1cccc(Nc2nc(Nc3ccc(N4CCN(C(C)=O)CC4)c(F)c3)ncc2Cl)c1 5.15
C=C(F)C(=O)Nc1cccc(Nc2nc(Nc3ccc(N4CCN(C(C)=O)CC4)nc3)ncc2Cl)c1 4.74
C=C(Cl)C(=O)Nc1cccc(Nc2nc(Nc3ccc(N4CCN(C(C)=O)CC4)c(C)c3)ncc2Cl)c1 5.89

[P] C=C(F)C(=O)Nc1cccc(Nc2nc(Nc3ccc(N4CCN(C(C)=O)CC4)cc3OC)ncc2Cl)c1
[Q] C=C(C(=O)Nc1cccc(Nc2nc(Nc3ccc(N4CCN(C(C)=O)CC4)cc3)ncc2Cl)c1)c1ccccc1
[R] C=C(F)C(=O)Nc1cccc(Nc2nc(Nc3ccc(N4CCN(C(C)=O)CC4)c(C(F)(F)F)c3)ncc2Cl)c1
**Q:** Please list the entries, largest pIC50 first. # answer = labels listed in requested order
**A:** P, R, Q

====

MEASUREMENT TARGET: Epidermal growth factor receptor (Homo sapiens, UniProt P00533, L858R/T790M)
Sequence (P00533 25-1210 T790M/L858R limits assumed): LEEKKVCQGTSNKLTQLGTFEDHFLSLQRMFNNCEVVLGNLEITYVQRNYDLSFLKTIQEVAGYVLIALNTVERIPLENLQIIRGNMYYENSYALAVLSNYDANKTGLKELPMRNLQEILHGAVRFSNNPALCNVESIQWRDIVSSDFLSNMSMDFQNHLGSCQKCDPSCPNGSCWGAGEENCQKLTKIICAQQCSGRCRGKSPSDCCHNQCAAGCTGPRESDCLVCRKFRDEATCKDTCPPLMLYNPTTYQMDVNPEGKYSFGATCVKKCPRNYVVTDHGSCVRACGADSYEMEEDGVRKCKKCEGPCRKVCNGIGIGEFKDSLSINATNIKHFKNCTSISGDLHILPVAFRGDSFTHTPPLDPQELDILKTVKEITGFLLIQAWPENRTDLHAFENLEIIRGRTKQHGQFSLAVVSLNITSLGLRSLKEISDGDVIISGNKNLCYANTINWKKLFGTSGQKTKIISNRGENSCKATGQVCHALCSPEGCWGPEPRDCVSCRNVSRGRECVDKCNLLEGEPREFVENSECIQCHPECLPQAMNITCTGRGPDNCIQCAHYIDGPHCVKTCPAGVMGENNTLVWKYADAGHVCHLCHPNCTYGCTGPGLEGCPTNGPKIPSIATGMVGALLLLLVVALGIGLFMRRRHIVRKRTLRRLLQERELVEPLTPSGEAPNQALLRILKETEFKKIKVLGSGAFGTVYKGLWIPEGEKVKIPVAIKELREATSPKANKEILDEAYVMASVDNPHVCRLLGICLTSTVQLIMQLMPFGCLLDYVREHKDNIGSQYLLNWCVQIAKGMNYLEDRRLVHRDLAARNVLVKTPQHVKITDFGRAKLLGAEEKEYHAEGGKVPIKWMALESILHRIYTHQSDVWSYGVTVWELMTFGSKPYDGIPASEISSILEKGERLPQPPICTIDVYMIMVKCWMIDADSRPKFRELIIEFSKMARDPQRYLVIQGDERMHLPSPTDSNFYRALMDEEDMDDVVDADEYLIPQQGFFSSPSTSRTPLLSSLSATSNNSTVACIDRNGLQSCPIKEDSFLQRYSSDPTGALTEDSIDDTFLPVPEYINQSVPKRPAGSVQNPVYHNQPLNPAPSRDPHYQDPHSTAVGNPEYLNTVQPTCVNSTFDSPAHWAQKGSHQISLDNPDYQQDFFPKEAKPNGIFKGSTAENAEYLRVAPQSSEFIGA
ASSAY OVERVIEW: Inhibition of recombinant human EGFR T790M/L858R mutant expressed in baculovirus insect cell expression system in presence of ATP preincubated 5 mins measured for 30 mins by detection reagent based HTRF analysis
Let's look at some molecules and their measured pIC50.
Field pIC50 (float): negative decimal logarithm of the concentration in molar.

Worked set:
C=C(Cl)C(=O)Nc1cccc(Nc2nc(Nc3ccc(N4CCN(C(C)=O)CC4)cc3)ncc2Cl)c1 8.41
C=C(Cl)C(=O)Nc1cccc(Nc2nc(Nc3ccc(N4CCN(C(C)=O)CC4)c(C)c3)ncc2Cl)c1 8.59
C=C(Cl)C(=O)Nc1cccc(Oc2nc(Nc3ccc(N4CCN(C(C)=O)CC4)cc3)ncc2Cl)c1 7.89
C=C(Cl)C(=O)Nc1cccc(Nc2nc(Nc3ccc(N4CCN(C(C)=O)CC4)cc3OC)ncc2C(F)(F)F)c1 7.80
C=C(Cl)C(=O)Nc1cccc(Nc2nc(Nc3ccc(N4CCN(C(C)=O)CC4)cc3Cl)ncc2Cl)c1 7.33

**Q:** Need pIC50 of `C=C(Cl)C(=O)Nc1cccc(Nc2nc(Nc3ccc(N4CCN(C(C)=O)CC4)c(Cl)c3)ncc2Cl)c1` , thanks.
**A:** 8.49

**Q:** Query (molecule): `C=C(Cl)C(=O)Nc1cccc(Nc2nc(Nc3ccc(N4CCN(C(C)=O)CC4)nc3)ncc2Cl)c1` ; field requested: pIC50
**A:** 8.12

====

System: A-431
ASSAY OVERVIEW: cells
REPORTED CONDITIONS: Homo sapiens, A-431, 48 h
pIC50: −log10 of the molar value.
METRIC NAME: pIC50

[1] C=C(Cl)C(=O)Nc1cccc(Nc2nc(Nc3ccc(N4CCN(C(C)=O)CC4)c(F)c3)ncc2Cl)c1
[2] C=C(C)C(=O)Nc1cccc(Nc2nc(Nc3ccc(N4CCN(C(C)=O)CC4)cc3)ncc2Cl)c1
**Q:** Please indicate which entry, 1 or 2 , has the lower recorded pIC50 value. Pick one; state its label.
**A:** 2

====

Tested on: A-431
ASSAY OVERVIEW: cells
REPORTED CONDITIONS: Homo sapiens, A-431, 48 h
pIC50: −log10 of the molar value.
METRIC NAME: pIC50

Below: 5 compounds and their reported pIC50.
C=C(Cl)C(=O)Nc1cccc(Oc2nc(Nc3ccc(N4CCN(C(C)=O)CC4)cc3OC)ncc2Cl)c1 5.72
C=C(Cl)C(=O)Nc1cccc(Nc2nc(Nc3ccc(N4CCN(C(C)=O)CC4)cc3OC)ncc2C(F)(F)F)c1 5.43
C=C(Cl)C(=O)Nc1cccc(Nc2nc(Nc3ccc(N4CCN(C(C)=O)CC4)nc3)ncc2Cl)c1 6.06
C=C(Cl)C(=O)Nc1cccc(Nc2nc(Nc3ccc(N4CCN(C(C)=O)CC4)c(Cl)c3)ncc2Cl)c1 6.85
C=C(Cl)C(=O)Nc1cccc(Nc2nc(Nc3ccc(N4CCN(C(C)=O)CC4)cc3)ncc2Cl)c1 5.50

[P] C=C(F)C(=O)Nc1cccc(Nc2nc(Nc3ccc(N4CCN(C(C)=O)CC4)c(Cl)c3)ncc2Cl)c1
[Q] C=C(Cl)C(=O)Nc1cccc(Oc2nc(Nc3ccc(N4CCN(C)CC4)cc3OC)ncc2Cl)c1
**Q:** Choose between P and Q : whose measured pIC50 value is numerically larger? Output the label that corresponds to your choice.
**A:** Q
(Q: 5.97, P: 5.15)
